- System: Primary human T-cells
- test protocol: Primary Human T-Cell Proliferation Assay Stimulated with IL-2 (CellTiter-Glo)
- Type: cell-based
- condition context: primary human T-cell proliferation stimulated with IL-2; read-out: IC50, Example 42
pIC50: −log10 of the molar value.
Use true when the recorded pIC50 is no lower than 6; use false when it is lower.

[
  {
    "compound": "NS(=O)(=O)c1cccc(Nc2ncc(F)c(Nc3ccc(-c4ccccn4)c(OCF)c3)n2)c1",
    "target": "Primary human T-cells",
    "label": "true"
  },
  {
    "compound": "Cc1ccc(Nc2ncc(F)c(Nc3ccc(OCC#N)c(Cl)c3)n2)cc1S(N)(=O)=O",
    "target": "Primary human T-cells",
    "label": "true"
  },
  {
    "compound": "CC(C)c1ccc(Nc2ncc(F)c(Nc3ccc(OCC#N)cc3)n2)cc1S(N)(=O)=O",
    "target": "Primary human T-cells",
    "label": "true"
  },
  {
    "compound": "NS(=O)(=O)c1ccc(Nc2ncc(F)c(Nc3ccc(OCc4ccccn4)c(Cl)c3)n2)cc1",
    "target": "Primary human T-cells",
    "label": "false"
  },
  {
    "compound": "Cc1cc(CCC#N)ccc1Nc1nc(Nc2cccc(S(N)(=O)=O)c2)ncc1F [III-24]",
    "target": "Primary human T-cells",
    "label": "false"
  },
  {
    "compound": "Cc1cc(Nc2nc(Nc3ccc(S(N)(=O)=O)cc3)ncc2F)cc(C)c1OCC(N)=O",
    "target": "Primary human T-cells",
    "label": "false"
  },
  {
    "compound": "Cc1cc(Nc2nc(Nc3ccc(S(N)(=O)=O)cc3)ncc2F)cc(C)c1OC(C)C(N)=O (racemic)",
    "target": "Primary human T-cells",
    "label": "false"
  }
]

###

- System: Primary human T-cells
- test protocol: Primary Human T-Cell Proliferation Assay Stimulated with IL-2 (CellTiter-Glo)
- Assay type: cell-based
- condition context: Homo sapiens, T-cell, primary human T-cells stimulated with IL-2, proliferation; read-out: IC50, Example 42
pIC50: −log10 of the molar value.
Recorded measurements of pIC50, one per entry

[
  {
    "mol": "COC(=O)c1ccc(Nc2nc(Nc3ccc(F)c(S(N)(=O)=O)c3)ncc2F)s1",
    "target": "Primary human T-cells",
    "pIC50": 5.58
  },
  {
    "mol": "C#CCOc1cccc(Nc2nc(Nc3ccc(C)c(S(N)(=O)=O)c3)ncc2F)c1",
    "target": "Primary human T-cells",
    "pIC50": 5.93
  },
  {
    "mol": "COc1ccc(Nc2nc(Nc3cc(Cl)c(C)c(S(N)(=O)=O)c3)ncc2F)cc1Cl",
    "target": "Primary human T-cells",
    "pIC50": 5.87
  },
  {
    "mol": "CN1C(=O)CSc2ccc(Nc3nc(Nc4ccc(S(N)(=O)=O)cc4)ncc3F)cc21",
    "target": "Primary human T-cells",
    "pIC50": 6.47
  },
  {
    "mol": "NS(=O)(=O)c1cccc(Nc2ncc(F)c(Nc3ccc(CCCCF)cc3)n2)c1",
    "target": "Primary human T-cells",
    "pIC50": 6.97
  },
  {
    "mol": "COc1c(C)cc(Nc2ncc(F)c(Nc3ccc4c(c3)NC(=O)C(F)(F)O4)n2)cc1S(N)(=O)=O",
    "target": "Primary human T-cells",
    "pIC50": 6.38
  },
  {
    "mol": "CN1C(=O)COc2ccc(Nc3nc(Nc4cccc(S(N)(=O)=O)c4)ncc3F)cc21",
    "target": "Primary human T-cells",
    "pIC50": 6.58
  },
  {
    "mol": "NS(=O)(=O)c1cc(Nc2ncc(F)c(Nc3ccc(Cl)c(Cl)c3)n2)ccc1Cl",
    "target": "Primary human T-cells",
    "pIC50": 5.06
  },
  {
    "mol": "CN1C(=O)CSc2ccc(Nc3nc(Nc4cccc(S(N)(=O)=O)c4)ncc3F)cc21",
    "target": "Primary human T-cells",
    "pIC50": 7.26
  },
  {
    "mol": "NS(=O)(=O)c1cccc(Nc2ncc(F)c(Nc3ccc4sccc4c3)n2)c1",
    "target": "Primary human T-cells",
    "pIC50": 6.58
  },
  {
    "mol": "Cc1cnc(Nc2cccc(S(N)(=O)=O)c2)nc1Nc1ccc2c(c1)NC(=O)CO2",
    "target": "Primary human T-cells",
    "pIC50": 7.49
  },
  {
    "mol": "Cc1ccc(Nc2ncc(F)c(Nc3cccc4ncccc34)n2)cc1S(N)(=O)=O",
    "target": "Primary human T-cells",
    "pIC50": 6.11
  },
  {
    "mol": "CN1C(=O)C(C)(C)S(=O)(=O)c2ccc(Nc3nc(Nc4ccc(S(N)(=O)=O)cc4)ncc3F)cc21",
    "target": "Primary human T-cells",
    "pIC50": 5.17
  },
  {
    "mol": "Cc1ccc(Nc2ncc(F)c(Nc3ccc(CCCO)cc3)n2)cc1S(N)(=O)=O",
    "target": "Primary human T-cells",
    "pIC50": 5.91
  },
  {
    "mol": "Cc1ccc(Nc2ncc(F)c(Nc3ccc(CCCCF)cc3)n2)cc1S(N)(=O)=O",
    "target": "Primary human T-cells",
    "pIC50": 6.25
  }
]

###

- System: Primary human T-cells
- test protocol: Primary Human T-Cell Proliferation Assay Stimulated with IL-2 (CellTiter-Glo)
- Type: cell-based
- condition context: Homo sapiens, T-cell, primary human T-cells stimulated with IL-2, proliferation; read-out: IC50, Example 42
Recorded measurements of IC50, one per entry

[
  {
    "mol": "Cc1ccc(Nc2ncc(F)c(Nc3cnc4ccccc4c3)n2)cc1S(N)(=O)=O",
    "IC50": "3060 nM"
  },
  {
    "mol": "Cc1ccc(Nc2ncc(F)c(Nc3ccc4sccc4c3)n2)cc1S(N)(=O)=O",
    "IC50": "818 nM"
  },
  {
    "mol": "CC(C)(C)c1ccc(Nc2nc(Nc3cccc(S(N)(=O)=O)c3)ncc2F)cc1",
    "IC50": "1260 nM"
  },
  {
    "mol": "C#CCNS(=O)(=O)c1ccc(Nc2nc(Nc3cccc(S(N)(=O)=O)c3)ncc2F)cc1",
    "IC50": "929 nM"
  },
  {
    "mol": "C#CCOc1ccc(Nc2nc(Nc3ccc(C)c(S(=O)(=O)NC)c3)ncc2F)cc1",
    "IC50": "742 nM"
  },
  {
    "mol": "C#CCOc1ccc(Nc2nc(Nc3ccc(C)c(S(N)(=O)=O)c3)ncc2F)cc1C",
    "IC50": "724 nM"
  },
  {
    "mol": "Cc1ccc(Nc2ncc(F)c(Nc3ccc4oc(C#N)cc4c3)n2)cc1S(N)(=O)=O",
    "IC50": "484 nM"
  },
  {
    "mol": "NS(=O)(=O)c1ccc(Nc2ncc(F)c(Nc3ccc(CCCO)cc3)n2)cc1",
    "IC50": "762 nM"
  },
  {
    "mol": "NS(=O)(=O)c1cccc(Nc2ncc(F)c(Nc3ccc(C(F)(F)F)cc3)n2)c1",
    "IC50": "547 nM"
  }
]

###

Recorded measurements of pIC50, one per entry
- Test system: Primary human T-cells
- test protocol: Primary Human T-Cell Proliferation Assay Stimulated with IL-2 (CellTiter-Glo)
- Type: cell-based
- condition context: primary human T-cell proliferation stimulated with IL-2; read-out: IC50, Example 42
pIC50: −log10 of the molar value.

[
  {
    "compound": "N#CCOc1ccc(Nc2nc(Nc3ccc(S(N)(=O)=O)cc3)ncc2F)cc1 [Compound I-16]",
    "pIC50": 6.36
  },
  {
    "compound": "N#CCOc1ccc(Nc2nc(Nc3ccc(F)c(S(N)(=O)=O)c3)ncc2F)cc1 [Compound I-33]",
    "pIC50": 6.77
  },
  {
    "compound": "COc1cc(Nc2ncc(F)c(Nc3cc(C)c(OCC#N)c(C)c3)n2)ccc1S(N)(=O)=O [Compound I-32]",
    "pIC50": 5.56
  },
  {
    "compound": "Cc1cc(COc2ccc(Nc3nc(Nc4cc(C)c(F)c(S(N)(=O)=O)c4)ncc3F)cc2F)no1 [Compound I-224]",
    "pIC50": 6.71
  },
  {
    "compound": "Cc1cnc(Nc2ccc(S(N)(=O)=O)cc2)nc1Nc1ccc(OCC#N)cc1 [Compound I-57]",
    "pIC50": 7.27
  },
  {
    "compound": "Cc1cnc(Nc2ccc(S(N)(=O)=O)cc2)nc1Nc1ccc(CCC#N)cc1 [III-27]",
    "pIC50": 6.92
  },
  {
    "compound": "CCn1nccc1NC(=O)Cc1ccc(Nc2nc(Nc3ccc(C)c(S(N)(=O)=O)c3)ncc2F)cc1 [III-52]",
    "pIC50": 5.92
  },
  {
    "compound": "Cc1noc(COc2ccc(Nc3nc(Nc4ccc(C)c(S(N)(=O)=O)c4)ncc3F)cc2)n1 [Compound I-259]",
    "pIC50": 7.18
  },
  {
    "compound": "Cc1ccc(Nc2ncc(F)c(Nc3cc(C)c(OCC(N)=O)c(C)c3)n2)cc1S(N)(=O)=O [Compound I-96]",
    "pIC50": 6.11
  },
  {
    "compound": "CC(C)(C#N)Oc1ccc(Nc2nc(Nc3ccc(S(N)(=O)=O)cc3)ncc2F)cc1 [Compound I-75]",
    "pIC50": 5.48
  },
  {
    "compound": "Cc1cc(Nc2nc(Nc3ccc(C)c(S(N)(=O)=O)c3)ncc2F)ccc1OCC#N [Compound I-24]",
    "pIC50": 6.53
  },
  {
    "compound": "Cc1cc(Nc2nc(Nc3ccc(F)c(S(N)(=O)=O)c3)ncc2F)cc(C)c1OCC#N [Compound I-35]",
    "pIC50": 5.95
  },
  {
    "compound": "CNS(=O)(=O)c1cc(Nc2ncc(F)c(Nc3ccc(OCc4csc(C)n4)cc3)n2)ccc1C [Compound I-282]",
    "pIC50": 6.16
  },
  {
    "compound": "COc1cc(Nc2ncc(F)c(Nc3ccc(OC(C)(C)C#N)cc3)n2)ccc1S(N)(=O)=O [Compound I-77]",
    "pIC50": 5.79
  },
  {
    "compound": "Cc1cc(Nc2nc(Nc3cccc(S(N)(=O)=O)c3)ncc2F)cc(C)c1OCC#N [Compound I-26]",
    "pIC50": 6.40
  },
  {
    "compound": "COc1cc(Nc2ncc(F)c(Nc3ccc(OCC#N)c(C)c3)n2)ccc1S(N)(=O)=O [Compound I-29]",
    "pIC50": 6.30
  }
]
